# target of assay: T1, mTfR-1 Q200A on Expi293 cells (mouse, UniProt Q62351 1-763)
# T1 construct: whole, on cells
# T1 sequence (Q62351 whole entry Q200A): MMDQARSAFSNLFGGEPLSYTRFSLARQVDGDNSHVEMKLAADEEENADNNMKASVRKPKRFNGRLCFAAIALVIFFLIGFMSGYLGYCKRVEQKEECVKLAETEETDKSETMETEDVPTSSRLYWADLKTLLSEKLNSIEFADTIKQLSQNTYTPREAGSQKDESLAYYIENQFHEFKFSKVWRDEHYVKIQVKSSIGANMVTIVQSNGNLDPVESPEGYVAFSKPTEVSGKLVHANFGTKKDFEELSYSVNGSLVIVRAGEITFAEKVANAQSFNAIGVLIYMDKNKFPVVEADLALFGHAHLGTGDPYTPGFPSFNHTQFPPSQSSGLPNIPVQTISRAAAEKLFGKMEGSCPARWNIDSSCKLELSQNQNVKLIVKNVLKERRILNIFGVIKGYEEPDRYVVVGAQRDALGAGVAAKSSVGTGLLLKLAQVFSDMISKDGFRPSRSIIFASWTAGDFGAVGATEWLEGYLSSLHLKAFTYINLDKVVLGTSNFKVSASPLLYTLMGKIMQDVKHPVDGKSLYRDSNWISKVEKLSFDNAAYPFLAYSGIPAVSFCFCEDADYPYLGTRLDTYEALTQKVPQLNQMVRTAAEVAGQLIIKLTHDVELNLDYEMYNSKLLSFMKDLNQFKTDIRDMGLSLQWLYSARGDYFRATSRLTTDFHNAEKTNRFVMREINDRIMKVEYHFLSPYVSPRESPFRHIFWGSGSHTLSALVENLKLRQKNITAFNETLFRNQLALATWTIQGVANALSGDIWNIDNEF
# protocol summary: FACS, transfected Expi293 cells
quantity name: % double-positive cells vs WT (%)
Please state the figure in %; there is no need to write the unit.

These recorded examples may help you get a feel for the data.
Clone C variant 13 VNAR-hFc (Fc fusion, not shown: a dimerising Fc or GST, also called Clone C v13; Clone C var; 13) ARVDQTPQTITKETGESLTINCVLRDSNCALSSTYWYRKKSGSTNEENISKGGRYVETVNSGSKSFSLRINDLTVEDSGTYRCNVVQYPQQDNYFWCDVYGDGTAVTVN
72
8D3 antibody (anti-mouse TfR-1 control; 8D3-hFc formatted antibody) (antibody, V domains shown) VH: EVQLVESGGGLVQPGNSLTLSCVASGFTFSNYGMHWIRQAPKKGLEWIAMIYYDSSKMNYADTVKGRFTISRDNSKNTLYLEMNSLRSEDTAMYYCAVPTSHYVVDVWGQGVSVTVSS VL: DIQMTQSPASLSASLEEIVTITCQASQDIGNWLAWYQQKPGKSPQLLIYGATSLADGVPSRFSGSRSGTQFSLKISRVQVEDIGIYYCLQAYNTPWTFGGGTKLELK
66
Clone C VNAR-hFc fusion (Fc fusion, not shown: a dimerising Fc or GST, bivalent VNAR-Fc; also called Clone C-hFc) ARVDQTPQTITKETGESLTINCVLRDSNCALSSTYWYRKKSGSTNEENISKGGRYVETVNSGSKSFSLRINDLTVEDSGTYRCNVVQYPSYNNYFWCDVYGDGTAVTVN
90

// below: % double-positive cells vs WT requested for another binder
% double-positive cells vs WT in this record for Clone C variant 18 VNAR-hFc (Fc fusion, not shown: a dimerising Fc or GST, also called Clone C v18; Clone C var; 18) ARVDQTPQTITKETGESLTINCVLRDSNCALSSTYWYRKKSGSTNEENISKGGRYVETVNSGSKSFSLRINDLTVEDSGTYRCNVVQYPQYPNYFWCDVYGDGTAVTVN : 171

FYI, the data here is from patent US20210403591A1.
